Reference source for all entries: patent US9434711B2

system.under.test: canine TRPM8 (Canis lupus familiaris)
Sequence (Q1A7N1 1-1104): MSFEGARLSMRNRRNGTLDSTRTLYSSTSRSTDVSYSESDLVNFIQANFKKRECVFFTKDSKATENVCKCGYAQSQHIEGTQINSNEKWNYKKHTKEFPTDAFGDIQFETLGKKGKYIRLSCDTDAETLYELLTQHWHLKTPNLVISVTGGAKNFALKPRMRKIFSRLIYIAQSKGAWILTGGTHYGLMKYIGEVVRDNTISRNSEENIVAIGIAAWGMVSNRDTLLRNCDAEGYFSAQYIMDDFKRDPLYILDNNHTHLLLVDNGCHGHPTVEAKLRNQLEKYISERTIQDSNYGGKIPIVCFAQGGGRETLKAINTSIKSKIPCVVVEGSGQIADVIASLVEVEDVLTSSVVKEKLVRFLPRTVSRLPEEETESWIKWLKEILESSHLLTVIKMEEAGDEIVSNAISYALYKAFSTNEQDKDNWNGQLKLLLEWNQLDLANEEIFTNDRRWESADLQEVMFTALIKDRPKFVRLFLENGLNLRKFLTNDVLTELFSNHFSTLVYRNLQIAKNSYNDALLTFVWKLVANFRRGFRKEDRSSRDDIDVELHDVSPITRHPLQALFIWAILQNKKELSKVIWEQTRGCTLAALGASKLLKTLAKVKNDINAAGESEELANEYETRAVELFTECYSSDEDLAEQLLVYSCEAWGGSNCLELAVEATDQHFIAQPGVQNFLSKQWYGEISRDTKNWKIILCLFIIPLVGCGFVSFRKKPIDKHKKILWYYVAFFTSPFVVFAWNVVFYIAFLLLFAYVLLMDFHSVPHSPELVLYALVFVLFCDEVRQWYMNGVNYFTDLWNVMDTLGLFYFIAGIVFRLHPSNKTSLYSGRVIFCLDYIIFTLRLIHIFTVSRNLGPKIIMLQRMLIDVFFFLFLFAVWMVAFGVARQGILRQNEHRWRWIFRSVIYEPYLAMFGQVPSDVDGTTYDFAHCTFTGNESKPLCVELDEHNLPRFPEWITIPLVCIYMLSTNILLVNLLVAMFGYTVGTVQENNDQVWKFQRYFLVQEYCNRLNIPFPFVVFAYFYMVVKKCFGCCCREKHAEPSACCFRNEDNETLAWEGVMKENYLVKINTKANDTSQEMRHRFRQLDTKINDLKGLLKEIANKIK
assay.comment: In Vitro Canine TRPM8 Functional Assay (Ca2+ fluorescence, icilin activation)
Type: cell-based
test.context: HEK293 cells stably expressing canine TRPM8; icilin activation; eight-point dose-response; read-out: IC50
API: label(entry) gives true (1) if the entry's IC50 is strictly smaller than 10 nM; on equality or larger values it gives false (0).

Past entries and their recorded results:
CN(C)S(=O)(=O)N(CCC(F)(F)F)c1sc2ccccc2c1Br
false (0)
O=S(=O)(c1cccnc1)N(Cc1ccc(F)c(F)c1)c1sc2ccccc2c1Br
true (1)
COC(=O)c1cccc(S(=O)(=O)N(Cc2ccc(F)c(C(F)(F)F)c2)c2sc3ccccc3c2C)c1
true (1)
Cc1nnc(-c2cccc(S(=O)(=O)N(Cc3ccc(F)c(C(F)(F)F)c3)c3sc4ccccc4c3C)c2)o1
true (1)
Cc1c(N(Cc2ccc(F)c(C(F)(F)F)c2)S(=O)(=O)c2ccc3ncsc3c2)sc2ccccc12
false (0)

Enquiry: Record CCS(=O)(=O)N(Cc1ccc(F)c(C(F)(F)F)c1)c1sc2ccccc2c1Br : is its IC50 strictly below 10 nM?
Return: false (0)

Enquiry: Please let me know if Cc1c(N(Cc2ccc(F)c(C(F)(F)F)c2)S(=O)(=O)CCC(=O)O)sc2ccccc12 shows IC50 below 10 nM.
Return: false (0)

Enquiry: is_below(IC50, 10 nM) for CCOC(=O)CCCCCN(c1sc2ccccc2c1Br)S(=O)(=O)c1ccccc1 ?
Return: false (0)

Enquiry: State whether 10 nM exceeds IC50 recorded for Nc1ccc(S(=O)(=O)N(CCCCC(F)(F)F)c2sc3ccccc3c2Cl)cc1 .
Return: true (1)

Enquiry: Given the entry O=c1[nH]c(-c2ccc(S(=O)(=O)N(CCC(F)(F)F)c3sc4ccccc4c3Br)cc2)ns1 , would its reported IC50 be below 10 nM?
Return: false (0)
